Molecular target: PRMT5 (Homo sapiens, UniProt O14744)
Construct: purchased Viva (custom protein)
Sequence (O14744 whole entry): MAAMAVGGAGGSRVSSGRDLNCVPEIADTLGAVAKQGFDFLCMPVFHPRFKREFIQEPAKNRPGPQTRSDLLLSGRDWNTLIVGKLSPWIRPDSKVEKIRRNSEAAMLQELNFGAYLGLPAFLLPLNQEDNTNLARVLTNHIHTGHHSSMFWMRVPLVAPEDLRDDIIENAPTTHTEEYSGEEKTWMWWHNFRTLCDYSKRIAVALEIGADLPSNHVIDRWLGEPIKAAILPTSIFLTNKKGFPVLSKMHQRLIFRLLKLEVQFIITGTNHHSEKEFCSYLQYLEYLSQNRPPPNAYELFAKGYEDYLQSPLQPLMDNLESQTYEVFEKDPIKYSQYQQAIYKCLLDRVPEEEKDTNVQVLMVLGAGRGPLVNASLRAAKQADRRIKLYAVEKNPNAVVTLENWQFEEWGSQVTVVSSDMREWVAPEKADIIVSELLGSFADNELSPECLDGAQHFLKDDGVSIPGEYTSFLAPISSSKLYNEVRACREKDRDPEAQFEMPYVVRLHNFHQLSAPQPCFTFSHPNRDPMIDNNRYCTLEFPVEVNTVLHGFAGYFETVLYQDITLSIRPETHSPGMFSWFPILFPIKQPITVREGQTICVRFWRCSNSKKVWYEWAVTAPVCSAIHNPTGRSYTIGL
Sequence (Q9BQA1 whole entry partner): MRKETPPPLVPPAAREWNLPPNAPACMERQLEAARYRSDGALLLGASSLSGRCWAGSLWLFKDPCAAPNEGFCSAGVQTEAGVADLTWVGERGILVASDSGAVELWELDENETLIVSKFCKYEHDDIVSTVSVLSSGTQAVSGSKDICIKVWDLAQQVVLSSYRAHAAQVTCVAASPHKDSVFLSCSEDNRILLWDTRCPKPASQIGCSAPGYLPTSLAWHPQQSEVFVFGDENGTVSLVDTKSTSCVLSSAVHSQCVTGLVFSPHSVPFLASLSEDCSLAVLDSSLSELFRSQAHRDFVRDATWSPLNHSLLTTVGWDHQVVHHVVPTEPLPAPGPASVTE
Experiment: PRMT5 IC50 assay with no cofactor
Assay type: biochemical
pIC50: −log10 of the molar value.

| Molecule | Assay Target | pIC50 |
| --- | --- | --- |
| CNC(=O)CN1CCC(Nc2cc(C(=O)NC[C@H](O)CN3CCc4c(ccc(OCc5cnco5)c4C)C3)ncn2)CC1 | PRMT5 (Homo sapiens, UniProt O14744) | ≤ 5.30 |
| Cc1c(OCc2cnco2)ccc2c1CCN(C[C@@H](O)CNC(=O)c1ccnc(NC3CC4CCCC43)c1)C2 (some centres unmarked) | PRMT5 (Homo sapiens, UniProt O14744) | ≤ 5.30 |
| CCC(=O)N1CCC(Nc2cc(C(=O)NC[C@H](O)CN3CCc4c(ccc(OCc5cnco5)c4C)C3)ccn2)CC1 | PRMT5 (Homo sapiens, UniProt O14744) | 5.30 to 6.30 |
| CCN(C)c1cc(C(=O)NC[C@H](O)CN2CCc3c(ccc(OCc4ocnc4C)c3C)C2)cc(NC2CCC2)n1 | PRMT5 (Homo sapiens, UniProt O14744) | ≤ 5.30 |
| CC(=O)N1CCC(Nc2cc(C(=O)NC[C@H](O)CN3CCc4c(ccc(OCc5cnco5)c4Cl)C3)ccn2)CC1 | PRMT5 (Homo sapiens, UniProt O14744) | 5.30 to 6.30 |
| Cc1ncoc1COc1ccc2c(c1)CCN(C[C@@H](O)CNC(=O)c1cc(NC3CC4(CCC4)C3)nc(N3CCN(C(=O)C4CC4)CC3)c1)C2 | PRMT5 (Homo sapiens, UniProt O14744) | 6.30 to 7.30 |
| CCCC(=O)N1CCC(Nc2cc(C(=O)NC[C@H](O)CN3CCc4c(ccc(OCc5cnco5)c4Cl)C3)ccn2)CC1 | PRMT5 (Homo sapiens, UniProt O14744) | 5.30 to 6.30 |
| Cc1ncoc1COc1cc2c(cc1F)CN(C[C@@H](O)CNC(=O)c1ccc3c(c1)CCN(C(=O)c1ccc(Br)cc1)C3)CC2 | PRMT5 (Homo sapiens, UniProt O14744) | 5.30 to 6.30 |
| CN1CCN(c2cc(C(=O)NC[C@H](O)CN3CCc4cc(OCc5cnco5)ccc4C3)cc(NC3CCC3)n2)CC1 | PRMT5 (Homo sapiens, UniProt O14744) | 5.30 to 6.30 |
| Cc1ncoc1COc1ccc2c(c1C)CCN(C[C@@H](O)CNC(=O)c1cc(NC3COC3)nc(N3CCN(C)CC3)n1)C2 | PRMT5 (Homo sapiens, UniProt O14744) | ≤ 5.30 |
| COCCN(C)c1cc(C(=O)NC[C@H](O)CN2CCc3c(ccc(OCc4ocnc4C)c3C)C2)cc(NC2CCC2)n1 | PRMT5 (Homo sapiens, UniProt O14744) | ≤ 5.30 |
| Cc1ncoc1COc1ccc2c(c1C)CCN(C[C@@H](O)CNC(=O)c1cc(NC3CCC3)nc(OCCN(C)C)c1)C2 | PRMT5 (Homo sapiens, UniProt O14744) | 5.30 to 6.30 |
| CC(=O)N1CC(Nc2cc(C(=O)NC[C@H](O)CN3CCc4cc(OCc5ocnc5C)ccc4C3)nc(C(C)(C)C)n2)C1 | PRMT5 (Homo sapiens, UniProt O14744) | 5.30 to 6.30 |
| Cc1ncoc1COc1ccc2c(c1Cl)CCN(C[C@@H](O)CNC(=O)c1cc(NC3CCCCC3)ncn1)C2 | PRMT5 (Homo sapiens, UniProt O14744) | ≤ 5.30 |

These entries and their values trace back to patent US11986471B2.
